Target: T1, Human IL-11 (human, UniProt P20809 22-199)
T1 construct: Recombinant human IL-11 (GenScript Cat. No. Z03108-1) or IL-11 secreted by human cells; the mature form is said to have 178 residues; also called recombinant human IL-11; endogenously produced IL-11
T1 sequence: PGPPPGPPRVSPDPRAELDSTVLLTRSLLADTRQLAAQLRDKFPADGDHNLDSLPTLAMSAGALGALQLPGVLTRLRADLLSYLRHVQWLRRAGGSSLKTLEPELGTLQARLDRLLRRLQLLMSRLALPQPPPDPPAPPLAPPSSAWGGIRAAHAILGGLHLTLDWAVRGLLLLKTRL
Assay: SPR, Single Cycle Kinetics, BIAcore T200; human IL-11 immobilised on CM5 chip, antibody in IgG1 format as analyte, 1:1 model
property: koff (s⁻¹)
Reply numerically in s⁻¹, unit not repeated.

// known answers, use as guide
binder: 01Q (antibody, IgG1, V domains shown, C91Q variant of the YU100-H01 VL) VH: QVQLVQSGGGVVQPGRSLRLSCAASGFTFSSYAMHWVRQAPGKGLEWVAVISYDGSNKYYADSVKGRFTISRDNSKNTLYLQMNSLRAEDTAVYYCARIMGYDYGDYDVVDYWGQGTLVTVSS VL: QSALTQPRSVSGSPGQSVTISCTGTSSDVGAYNYVSWYQQHPGKAPKLMIYDVSERPSGVPDRFSGSKSGNTASLTISGLQAEDEADYYCQSYAGSYTWVFGGGTKLTVLG
koff, s⁻¹: 0.000966

binder: 01L (antibody, IgG1, V domains shown, C91L variant of the YU100-H01 VL) VH: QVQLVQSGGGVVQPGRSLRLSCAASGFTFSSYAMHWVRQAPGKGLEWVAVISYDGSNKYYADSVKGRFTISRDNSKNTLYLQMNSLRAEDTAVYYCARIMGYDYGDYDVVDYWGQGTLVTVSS VL: QSALTQPRSVSGSPGQSVTISCTGTSSDVGAYNYVSWYQQHPGKAPKLMIYDVSERPSGVPDRFSGSKSGNTASLTISGLQAEDEADYYCLSYAGSYTWVFGGGTKLTVLG
koff, s⁻¹: 0.000526

# ---- query binder ----
// query Returns the measured koff for the input binder. Input: 01T (antibody, IgG1, V domains shown, C91T variant of the YU100-H01 VL) VH: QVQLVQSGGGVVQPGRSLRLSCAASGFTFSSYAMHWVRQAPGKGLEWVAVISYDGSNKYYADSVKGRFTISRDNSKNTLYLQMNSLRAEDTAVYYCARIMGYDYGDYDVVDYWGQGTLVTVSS VL: QSALTQPRSVSGSPGQSVTISCTGTSSDVGAYNYVSWYQQHPGKAPKLMIYDVSERPSGVPDRFSGSKSGNTASLTISGLQAEDEADYYCTSYAGSYTWVFGGGTKLTVLG
// result 0.0127

Just for reference, patent US20210230266A1 is where these values come from.
